Hey, just so you know, these numbers are from ChEMBL document CHEMBL1201862.

# System: SF-295
# ASSAY COMMENT: NCI tumour cell line growth inhibition, 48 h
Calls of active or inactive are those of the source. Cut-off read from the data, not from the text of the source: active = GI50 up to about 1.1 µM and inactive = higher.
Labels: YES (active), NO (inactive)

{"columns": ["MOLECULE", "LABEL VALUE"],
 "data": [
  ["O=C1/C=C(/c2ccc(O)cc2)[C@@H](OC2OC(CO)C(O)C(O)C2O)Cc2ccc(O)cc2O1.O=C1/C=C(/c2ccc(O)cc2)[C@H](O)Cc2ccc(O[C@@H]3OC(CO)C(O)C(O)C3O)cc2O1 (stereo partly drawn)", "NO"],
  ["CC(=O)OCC1OC(O[C@@H]2c3c(O)c4c(c(O)c3C3=C(NN(c5ccc([N+](=O)[O-])cc5[N+](=O)[O-])[Se]3=O)[C@@]2(C)O)C(=O)c2ccccc2C4=O)C(OC(C)=O)C(OC(C)=O)C1OC(C)=O (stereo partly drawn)", "YES"],
  ["CC12CC(Sc3ccccc3N1)c1ccccc1O2 (stereo not drawn)", "NO"]
]}

---

Listing of recorded GI50 by entry.
# Test system: SF-539
# ASSAY COMMENT: NCI tumour cell line growth inhibition, 48 h
Calls of active or inactive are those of the source. Cut-off read from the data, not from the text of the source: active = GI50 up to about 1.1 µM and inactive = higher.

{"columns": ["COMPOUND", "GI50"],
 "data": [
  ["Cc1ccc(CC(=O)Nc2ccc(NC(=O)/C=C/NC(=O)/C=C/c3ccc(-c4ccccc4)cc3)cc2C(=O)c2ccccc2)cc1", "1.67 µM (inactive)"],
  ["CC1CC(c2cccc3c2OCO3)=Nc2ccccc2S1 (stereo not given)", "> 100 µM (inactive)"],
  ["CC(=O)c1cccc(N2COC(C)(C)c3nc4ccccc4n3C2)c1", "> 100 µM (inactive)"],
  ["NC(=O)C(=CN1C(=O)CC(=O)NC1=S)C(N)=O", "> 100 µM (inactive)"],
  ["O=C([O-])C(O)C(O)C(=O)O.[K+] (stereo not given) [POTASSIUM HYDROGENTARTRATE]", "> 100 µM (inactive)"]
]}

---

Listing of recorded GI50 by entry.
# Test system: ACHN
# ASSAY COMMENT: NCI tumour cell line growth inhibition, 48 h
Activity calls are given as the source filed them. Rule as the data show it: active = GI50 up to about 1.1 µM and inactive = higher. Square brackets hold non-standard residues; d marks the D form. Peptide text beside a SMILES is read from it. * marks the point of attachment. AllylGly = C=CC[CH](N)C(=O)O; Boc = CC(C)(C)OC(=O)*; OtBu = CC(C)(C)O*
MEASURE NAME: GI50

{"columns": ["COMPOUND", "TARGET UNDER TEST", "OBS VALUE"],
 "data": [
  ["C=C1C(=O)O[C@H](c2ccoc2)C[C@@H]1[C@@]1(C)CCCC2(C)C(=O)OCC21 (stereo not given in full)", "ACHN", "> 100 µM (inactive)"],
  ["C=CCC(NC(=O)C(CC(=O)OC(C)(C)C)NC(=O)OC(C)(C)C)C(=O)OC (stereo not given) (Boc-Asp(OtBu)-[AllylGly]-OMe; configuration not given here)", "ACHN", "> 100 µM (inactive)"],
  ["CCOc1cn(C2CC(O)C(CO)O2)c(=O)[nH]c1=O (stereo not given)", "ACHN", "> 100 µM (inactive)"],
  ["CC1C2CCC3C(O)C2(CC(O)C2(O)C1CC(O)C2(C)C)CC3(C)O (stereo not given)", "ACHN", "> 100 µM (inactive)"],
  ["Cc1cc([N+](=O)[O-])c(C)c2c1[nH]c1ccc(/C(CCC3CCCC3)=N\\N)cc12", "ACHN", "15.5 µM (inactive)"],
  ["COc1ccc2c(c1OC)CN1CCc3cc4c(cc3C1C2)OCO4 (stereo not given) [TETRAHYDROBERBERINE]", "ACHN", "> 100 µM (inactive)"],
  ["CCCCNc1c(CN)cnc2cc(Cl)ccc12", "ACHN", "22.6 µM (inactive)"],
  ["O=C1C(NCCF)=C(Cl)C(=O)c2ncccc21", "ACHN", "1.53 µM (inactive)"],
  ["CN(C)c1ccc(-c2nc(N)nc3c2CCCC3)cc1", "ACHN", "26.4 µM (inactive)"],
  ["CS/C(=N/C#N)NCCc1c[nH]c2ccccc12", "ACHN", "25.1 µM (inactive)"]
]}
